List of pIC50 values.
- Tested on: 5637 cells
- ASSAY OVERVIEW: CCK-8 anti-proliferative assay, 5637
- Assay type: cell-based, human
- CONDITION PARAMETERS: Homo sapiens; Table 16; comparative compounds 8-1 to 8-23; co-incubated 48 h; read-out: Anti-proliferative activity (IC50 ± standard deviation) 5637
Bear in mind: pIC50 is minus log10 of a mol/L concentration; give just that figure.

COc1cc2ncnc(NCc3cccc(NC(=O)Nc4ccc(C(C)(C)C)cc4)c3)c2cc1OCCCC(=O)N1CCC(N2CCOCC2)CC1 [Compound 8-9, reference compound]: 5.20
CCc1ccccc1NC(=O)Nc1cccc(CNc2ncnc3cc(OC)c(OCCCC(=O)N4CCC(N5CCOCC5)CC4)cc23)c1 [Compound 8-6, reference compound]: 4.56
COc1cc2ncnc(NCc3cccc(NC(=O)Nc4ccc(F)cc4)c3)c2cc1OCCCC(=O)N1CCC(N2CCOCC2)CC1 [Compound 8-13, reference compound]: 4.86
COc1cc2ncnc(NCc3cccc(NC(=O)Nc4ccccc4C)c3)c2cc1OCCCC(=O)N1CCC(N2CCOCC2)CC1 [Compound 8-2, reference compound]: 4.59
CCc1cccc(CC)c1NC(=O)Nc1cccc(CNc2ncnc3cc(OC)c(OCCCC(=O)N4CCC(N5CCOCC5)CC4)cc23)c1 [Compound 8-7, reference compound]: 4.86
COc1cc2ncnc(NCc3cccc(NC(=O)Nc4ccccc4)c3)c2cc1OCCCC(=O)N1CCC(N2CCOCC2)CC1 [Compound 8-1, reference compound]: 4.58
COc1cc2ncnc(NCc3cccc(NC(=O)Nc4ccc(C(F)(F)F)cc4)c3)c2cc1OCCCC(=O)N1CCC(N2CCOCC2)CC1 [Compound 8-18, reference compound]: 4.88
COc1ccccc1NC(=O)Nc1cccc(CNc2ncnc3cc(OC)c(OCCCC(=O)N4CCC(N5CCOCC5)CC4)cc23)c1 [Compound 8-10, reference compound]: 4.77
COc1cc2ncnc(NCc3cccc(NC(=O)Nc4ccccc4Cl)c3)c2cc1OCCCC(=O)N1CCC(N2CCOCC2)CC1 [Compound 8-14, reference compound]: 4.54

The record that follows has no pIC50 shown yet.
Query: # input molecule: COc1cc2ncnc(NCc3cccc(NC(=O)Nc4ccc(C)cc4C)c3)c2cc1OCCCC(=O)N1CCC(N2CCOCC2)CC1 [Compound 8-4, reference compound] ; wanted: its pIC50
Reply: 4.86

* * *

- Tested on: 143B cells
- ASSAY OVERVIEW: CCK-8 anti-proliferative assay, 143B
- Format: cell-based, human
- CONDITION PARAMETERS: Homo sapiens, 143B; Table 7; co-incubated 48 h; read-out: Anti-proliferative activity (IC50 ± standard deviation) 143B
List of IC50 values.
Give the value in µM but do not write µM after it.

Known results for compounds:
COc1cc2ncnc(NCc3cccc(NC(=O)Nc4ccc(C)cc4)c3)c2cc1OCCCCCCN1CCN(CCN2CCOCC2)CC1: 8.62
CCc1cccc(CC)c1NC(=O)Nc1cccc(CNc2ncnc3cc(OC)c(OCCCCCCN4CCN(CCN5CCOCC5)CC4)cc23)c1: 4.46
CCc1ccccc1NC(=O)Nc1cccc(CNc2ncnc3cc(OC)c(OCCCCCCN4CCN(CCN5CCOCC5)CC4)cc23)c1: 19.3

Query: # input compound: "COc1cc2ncnc(NCc3cccc(NC(=O)NC4CCCCC4)c3)c2cc1OCCCCCCN1CCN(CCN2CCOCC2)CC1" ; wanted: its IC50
Reply: 22.4

Query: # input compound: "COc1cc2ncnc(NCc3cccc(NC(=O)Nc4ccc(Cl)c(C(F)(F)F)c4)c3)c2cc1OCCCCCCN1CCN(CCN2CCOCC2)CC1" ; wanted: its IC50
Reply: 5.41

Origin of measurements: patent US20260285816A1
